- tgt: T1, EsCas13d, nuclease-dead (Eubacterium siraeum, UniProt B0MS50, R295A;H300A;R849A;H854A)
- T1 sequence: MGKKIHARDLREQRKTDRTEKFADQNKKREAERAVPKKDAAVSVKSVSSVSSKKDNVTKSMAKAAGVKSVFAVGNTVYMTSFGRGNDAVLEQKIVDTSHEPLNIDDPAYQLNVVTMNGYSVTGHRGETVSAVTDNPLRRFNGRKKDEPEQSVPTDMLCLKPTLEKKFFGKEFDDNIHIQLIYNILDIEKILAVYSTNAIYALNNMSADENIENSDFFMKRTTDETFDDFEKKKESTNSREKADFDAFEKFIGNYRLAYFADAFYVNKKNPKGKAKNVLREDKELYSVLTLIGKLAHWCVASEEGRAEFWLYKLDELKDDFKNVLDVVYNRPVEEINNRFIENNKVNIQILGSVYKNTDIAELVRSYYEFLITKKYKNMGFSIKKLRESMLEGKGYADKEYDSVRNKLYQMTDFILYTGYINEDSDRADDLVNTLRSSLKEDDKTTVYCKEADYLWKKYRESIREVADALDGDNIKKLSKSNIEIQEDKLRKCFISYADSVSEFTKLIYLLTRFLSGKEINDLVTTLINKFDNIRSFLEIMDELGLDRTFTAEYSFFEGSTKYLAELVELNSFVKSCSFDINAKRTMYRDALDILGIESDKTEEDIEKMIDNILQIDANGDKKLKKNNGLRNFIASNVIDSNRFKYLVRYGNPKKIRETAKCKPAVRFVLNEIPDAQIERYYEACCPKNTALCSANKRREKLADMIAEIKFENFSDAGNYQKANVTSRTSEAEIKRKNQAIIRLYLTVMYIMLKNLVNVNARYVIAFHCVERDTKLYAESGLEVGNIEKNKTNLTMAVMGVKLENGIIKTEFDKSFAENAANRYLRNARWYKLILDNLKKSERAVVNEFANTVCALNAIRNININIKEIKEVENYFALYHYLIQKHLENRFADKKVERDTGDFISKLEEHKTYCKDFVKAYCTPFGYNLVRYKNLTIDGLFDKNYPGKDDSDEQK
- experimental_protocol: crRNA (strand 1, pre-loaded); Mg2+; 40 mM Tris-HCl pH 7.5, 150 mM NaCl, 6 mM MgCl2, 1 mM DTT, 0.1% Tween-20, 0.2 mg/ml BSA; 25 C; 10 min per concentration, then washed
- cond: tags: His6-TwinStrep-SUMO cleaved; N-terminal SNAP kept (SNAP-Surface 488); label: 3' end held by stalled T7 RNA polymerase
Listed next: entries and their corresponding Kd.
Number in nM, nothing else.

>  <binder>
target 1 G13A,A14G (mixed) RNA 1: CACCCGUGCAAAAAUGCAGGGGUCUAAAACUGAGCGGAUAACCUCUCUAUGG RNA 2: GGGAAUGGAUCCACAUCUACGAAUUCGUACCAUAGAGGAGUUAUCCGCUCACCGAGAUCGGAAGAGCACACGU

>  <endpoint>
Kd

>  <unit_symbol>
nM

>  <reading>
17.2

$$$$
>  <binder>
target 1 C7G,G17U (mixed) RNA 1: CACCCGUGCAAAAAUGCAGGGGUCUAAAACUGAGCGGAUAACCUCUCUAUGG RNA 2: GGGAAUGGAUCCACAUCUACGAAUUCGUACCAUAUAGAGGUUAUGCGCUCACCGAGAUCGGAAGAGCACACGU

>  <endpoint>
Kd

>  <unit_symbol>
nM

>  <reading>
35

$$$$
>  <binder>
target 1 insU 3' of 13,insU 3' of 1 (mixed) RNA 1: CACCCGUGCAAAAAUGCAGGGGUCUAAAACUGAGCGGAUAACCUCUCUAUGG RNA 2: GGGAAUGGAUCCACAUCUACGAAUUCGUACCAUAGAGAGUGUUAUCCGCUCAUCCGAGAUCGGAAGAGCACACGU

>  <endpoint>
Kd

>  <unit_symbol>
nM

>  <reading>
14.8

$$$$

Kindly review the next binder as well.
Look up and state reported Kd for target 1 A1G,U11C (mixed) RNA 1: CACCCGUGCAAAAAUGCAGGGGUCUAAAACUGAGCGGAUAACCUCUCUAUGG RNA 2: GGGAAUGGAUCCACAUCUACGAAUUCGUACCAUAGAGAGGCUAUCCGCUCGCCGAGAUCGGAAGAGCACACGU
8.4
